Assay: Plasma PK and tissue distribution after oral dosing of INTERMEDIATE C4 (3 mg/kg)
Assay type: in vivo
Conditions: male, Wistar Han, rat, spleen/plasma, po, 3 mg/kg, PO 3 mg/kg INTERMEDIATE C4, male Wistar Han rat, 4 hr; read-out: Spleen to plasma ratio individual
Experimental: Tissue Distribution of drug intermediate C4 from oral dosing of C4 and of intermediate C4 from oral dosing of example 7 in rats • Wistar Han rat, 185-197 g, male, N=8, purchased from Beijing Vital River Co. LTD. Qualification No.: SCXK(J) 2016-0011 11400700240027. Fasted overnight and fed 4 hr post dose. PO: 3 mg/kg (10 mL/kg) via oral gavage(N=8). Sampling at 1, 4, 8 and 24 hr , 4 time points, terminal bleeding for plasma, liver, lymph nodes and spleen collected at each time point.
property_measured: Kp at 4 h

| compound | property_measured | endpoint_value |
| --- | --- | --- |
| CC(C)CN(c1ccc([C@H](C)CC(=O)O)cc1Nc1cnc(Cl)cn1)C1CCOCC1 [intermediate C4] | Kp at 4 h | 0.283 |
